Entry source: ChEMBL document CHEMBL4402567

Let's look at some molecules and their measured selectivity ratio at 168 h.
- assay-details: Selectivity index, ratio of CC50 for cytotoxicity against human A549 cells to IC50 for antiviral activity against Human adenovirus 5 infected in 293beta5 cells assessed as inhibition of plaque formation after 7 days
- Type: toxicity, cell-based
- condition-description: read-out: Ratio CC50/IC50
The response must contain the number and no unit.

The value of selectivity ratio at 168 h measured for the molecule O=C(Nc1ccc(F)c(F)c1)c1cc(Cl)ccc1O turned out to be 29.6

Documented selectivity ratio at 168 h of O=C(NCc1ccc(C(F)(F)F)c(F)c1)c1cc(Cl)ccc1O : 15.9

// selectivity ratio at 168 h lookup, molecule = CC(C)[C@H](NC(=O)c1cc(Cl)ccc1NS(C)(=O)=O)C(=O)Nc1ccc([N+](=O)[O-])cc1Cl , result: 256

Lookup result for O=C(NCc1cc(F)cc(C(F)(F)F)c1)c1cc(Cl)ccc1O ; measured selectivity ratio at 168 h: 15.1

The molecule listed as C[C@H](NC(=O)c1cc(Cl)ccc1O)C(=O)Nc1ccc([N+](=O)[O-])cc1Cl shows selectivity ratio at 168 h equal to 26

Recorded result, O=C(NCc1ccc(C(F)(F)F)cc1)c1cc(Cl)ccc1O , selectivity ratio at 168 h: 9.2

Lab note: C[C@H](NC(=O)c1cc(Cl)ccc1O)c1ccccc1 gave selectivity ratio at 168 h of 78.5
